Tested on: KIT(L576P)
assay-context: Compound Concentration (nM):1000;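 note: KINOMEscan scanMAX binding as percent activity remaining versus control; lower means stronger binding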
metric: Percent Control (%)
Reply numerically in %, unit not repeated.

Take a look at these entries with their results.
{"molecule": "COc1cc2ncn(-c3cc(O[C@H](C)c4ccccc4Cl)c(C(N)=O)s3)c2cc1OC [GSK237701A]", "endpoint-unit": "%", "Percent Control": 34}
{"molecule": "NS(=O)(=O)c1ccc(N/N=C2\\C(=O)Nc3ccc(Cl)cc32)cc1 [GW280670X]", "endpoint-unit": "%", "Percent Control": 67}
{"molecule": "Cc1cc(O)cc(C)c1/C=C/c1cncc(C(N)=O)c1 [GW435821X]", "endpoint-unit": "%", "Percent Control": 4.4}
{"molecule": "COc1cc2ncnc(Nc3ccc4c(cnn4Cc4ccccc4)c3)c2cc1OC.Cl [GW282449A]", "endpoint-unit": "%", "Percent Control": 100}
{"molecule": "CC(C)COC(=O)c1ccc2c(c1)/C(=C/Nc1ccc(S(N)(=O)=O)cc1)C(=O)N2 [GW416981X]", "endpoint-unit": "%", "Percent Control": 57}

Qu. What does the record list as Percent Control for CN(C)CCNC(=O)Nc1ccc(N(C)c2ccnc(Nc3ccc(CS(C)(=O)=O)cc3)n2)cc1.Cl [GW830900A] ?
Ans. 0

Qu. Could you do the same for COc1ccc(COc2ccc(Cc3cnc(N)nc3N)cc2OC)cc1 [GW632580X] , please?
Ans. 93

Qu. Repeat for the following molecule: CN(C)c1cc2c(Nc3ccc4c(cnn4Cc4ccccc4)c3)ncnc2cn1 [GW282974X]
Ans. 100

Qu. Lookup COC(=O)Nc1nc2ccc(Oc3ccc(NC(=O)Nc4cc(C(F)(F)F)ccc4F)cc3)cc2s1.Cl [GW693917A]
Ans. 0

Qu. COc1cccc(-n2ncc3c(N/N=C/c4ccncc4)ncnc32)c1 [GW784752X] , same question.
Ans. 84

Qu. Now consider Cl.c1ccc(Cc2nc3ccc(Nc4ncnc5ccccc45)cc3[nH]2)cc1 [GR269666A] .
Ans. 100

Qu. Would you kindly repeat that for `CCc1ccc(Oc2nccc(-c3c(-c4ccc(F)cc4)ncn3C3CCNCC3)n2)cc1` ?
Ans. 85

Qu. Check CC1=C(C(=O)Nc2ccc3[nH]ncc3c2)C(c2ccc(Cl)c(Cl)c2)CC(=O)N1 (stereo not drawn) [GSK299115A] too.
Ans. 100

Qu. For Nc1ncnc2occ(-c3ccc(NC(=O)Nc4cc(C(F)(F)F)ccc4F)cc3)c12 [GW770249X] then?
Ans. 0

Qu. And then COc1ccc2c(-c3ccnc(Nc4cccc(OC(F)(F)F)c4)n3)cnn2n1 [GW810372X] , what is it?
Ans. 88

Qu. Moving on to the next molecule: `CCn1c(-c2nonc2N)nc2c(C#CC(C)(C)O)nc(OCCNC)cc21.Cl`
Ans. 100

Qu. For COc1cccc(-c2c[nH]c3c(N/N=C/c4ccncc4)ncnc23)c1 [GW814408X] then?
Ans. 2.1

Qu. Please answer likewise for NS(=O)(=O)c1ccc(N/N=C2\C(=O)Nc3ccc(C(=O)NCc4ccncc4)cc32)cc1 [GW300657X]
Ans. 83

----------
Test system: TYRO3
assay-context: Compound Concentration (nM):1000
Quick reference for Percent Control among some compounds
Give the number; % is assumed, so skip it.

Answered cases to consult:
{"compound": "Cl.O=S1CCN(Cc2ccc(-c3ccc4ncnc(Nc5ccc(OCc6ccccc6)c(F)c5)c4c3)o2)CC1 [GW576924A]", "Percent Control, %": 100}
{"compound": "COc1cc2ncnc(Nc3ccc4c(cnn4Cc4ccccc4)c3)c2cc1OC.Cl [GW282449A]", "Percent Control, %": 51}
{"compound": "Nc1ncnc2occ(-c3ccc(NC(=O)Nc4cc(C(F)(F)F)ccc4F)cc3)c12 [GW770249X]", "Percent Control, %": 100}

Qu. Value wanted: Percent Control (TYRO3) of entry `COc1ccc2cc(-c3c(-c4ccncc4)nc(-c4ccc(S(C)(=O)=O)cc4C)n3C)ccc2c1`
Ans. 72

Qu. Now give it for COc1ccc2c(-c3ccnc(Nc4cccc(OC(F)(F)F)c4)n3)cnn2n1 [GW810372X] too.
Ans. 100

Qu. Query CCS(=O)(=O)c1ccc(OC)c(Nc2ncc(-c3cccc(OC)c3)o2)c1 [GW580509X] next
Ans. 100

Qu. And then C[C@@H](Oc1cc(-n2cnc3ccc(OC4CCN(C)CC4)cc32)sc1C(N)=O)c1ccccc1Cl [GSK579289A] , what is it?
Ans. 92

Qu. Same question, NS(=O)(=O)c1ccc(N/N=C2\C(=O)Nc3ccc(Cl)cc32)cc1 [GW280670X] this time
Ans. 100

Qu. How about this compound: C/C(Nc1ccc(S(N)(=O)=O)cc1)=C1/C(=O)Nc2ccccc21 [GW335962X]
Ans. 100

Qu. Would you kindly repeat that for `COc1cc(C)c(N(C)C(=O)CN(C)C)cc1Nc1nc(Nc2cccc(F)c2C(N)=O)c2cc[nH]c2n1` ?
Ans. 100

----------
Test system: GSK3A
assay-context: Compound Concentration (nM):1000
Decision: Percent Control compared against 90%; not below it gives class 1, below it gives class 0.

Use these answered entries as a reference point.
{"compound": "CCS(=O)(=O)c1ccc(OC)c(Nc2ncc(-c3cccc(F)c3)o2)c1 [GW621970X]", "target-of-assay": "GSK3A", "class-assignment": "class 1"}
{"compound": "C[C@@H](Oc1cc(-n2cnc3ccc(OC4CCN(C)CC4)cc32)sc1C(N)=O)c1ccccc1Cl [GSK579289A]", "target-of-assay": "GSK3A", "class-assignment": "class 1"}
{"compound": "COc1cc2ncnc(Nc3ccc4c(cnn4Cc4ccccc4)c3)c2cc1OC.Cl [GW282449A]", "target-of-assay": "GSK3A", "class-assignment": "class 1"}
{"compound": "NS(=O)(=O)c1ccc(N/N=C2\\C(=O)Nc3ccc(Cl)cc32)cc1 [GW280670X]", "target-of-assay": "GSK3A", "class-assignment": "class 0"}
{"compound": "COc1cc(/C=N/Nc2ncnc3[nH]ncc23)ccc1O [GW578748X]", "target-of-assay": "GSK3A", "class-assignment": "class 0"}

Qu. In plain terms: is recorded Percent Control at least 90% for COc1cccc(-n2ncc3c(N/N=C/c4ccncc4)ncnc32)c1 [GW784752X] ?
Ans. class 0

Qu. // next record Cl.O=C(Nc1ccc(Oc2ccc3[nH]c(NC(=O)c4ccco4)nc3c2)cc1)Nc1cc(C(F)(F)F)ccc1F [GW683134A]
Ans. class 1

----------
Test system: ARK5
Construct: gene NUAK1
assay-context: Compound Concentration (nM):1000
Percent Control values, listed per item
Kindly report the value followed by its unit.

These recorded examples may help you get a feel for the data.
{"compound": "COc1cc(N2CCN(C(C)C)CC2)ccc1Nc1nc(Nc2ccc(F)cc2C(=O)NC[C@@H](O)CO)c2cc[nH]c2n1 [GSK1392956A]", "Percent Control": "67%"}
{"compound": "O=C(Nc1n[nH]c2nc(-c3ccc(O)cc3)c(Br)cc12)C1CC1", "Percent Control": "100%"}

Qu. Which Percent Control is listed for Cc1cc(O)cc(C)c1/C=C/c1cncc(C(N)=O)c1 [GW435821X] ?
Ans. 100%

Qu. Note, next up: `COc1cc(C)c(N(C)C(=O)CN(C)C)cc1Nc1nc(Nc2cccc(F)c2C(N)=O)c2cc[nH]c2n1`
Ans. 86%

Qu. Another compound: COc1cc2ncn(-c3cc(O[C@H](C)c4ccccc4Cl)c(C(N)=O)s3)c2cc1OC [GSK237701A]
Ans. 29%

----------
Tested on: FGFR1
assay-context: Compound Concentration (nM):1000
metric: Percent Control (%)
Use % as the unit, but write only the number.

{"compound": "CCS(=O)(=O)c1ccc(OC)c(Nc2ncc(-c3cccc(F)c3)o2)c1 [GW621970X]", "val": 25}

Qu. Query: Percent Control; subject: Cl.O=S1CCN(Cc2ccc(-c3ccc4ncnc(Nc5ccc(OCc6ccccc6)c(F)c5)c4c3)o2)CC1 [GW576924A]
Ans. 100

Qu. Would you kindly repeat that for CCS(=O)(=O)c1ccc(OC)c(Nc2ncc(-c3cccc(OC)c3)o2)c1 [GW580509X] ?
Ans. 39

Qu. Entry to check: COc1cc(N2CCN(C(C)C)CC2)ccc1Nc1nc(Nc2ccc(F)cc2C(=O)NC[C@@H](O)CO)c2cc[nH]c2n1 [GSK1392956A]
Ans. 100

Qu. Now give it for CC1=C(C(=O)Nc2ccc3[nH]ncc3c2)C(c2ccc(Cl)c(Cl)c2)CC(=O)N1 (stereo not shown) [GSK299115A] too.
Ans. 90

Qu. Another compound: Cl.O=C(Nc1ccc(Oc2ccc3[nH]c(NC(=O)c4ccccc4)nc3c2)cc1)Nc1cc(C(F)(F)F)ccc1F [GW709042A]
Ans. 76

Qu. Param item: NS(=O)(=O)c1ccc(N/N=C2\C(=O)Nc3ccc(C(=O)NCCc4c[nH]cn4)cc32)cc1 [GW300660X]
Ans. 100

Qu. Consider next the compound COc1ccc2c(-c3ccnc(Nc4cccc(OC(F)(F)F)c4)n3)cnn2n1 [GW810372X] in the same way.
Ans. 91

Qu. Do the same for COc1ccc(COc2ccc(Cc3cnc(N)nc3N)cc2OC)cc1 [GW632580X] please
Ans. 67

Qu. Subsequent entry: `COc1cc(C)c(N(C)C(=O)CN(C)C)cc1Nc1nc(Nc2cccc(F)c2C(N)=O)c2cc[nH]c2n1`
Ans. 100
